run description: amyloid nucleation score (Sup35N fusion, yeast selection) (log enrichment); library NNK2; higher = more nucleation; inactive = no reads after selection;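 also: zero at mode of non-aggregating sequences after 7 days selection at 30°C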

residue string: LLRRNFNYVYIIYLILSSPV
amyloid nucleation score: inactive

residue string: CLWVSMDGHSFWRKFNAVI
amyloid nucleation score: inactive

residue string: SITFFKNAFVAIHIAR
amyloid nucleation score: inactive

====

run description: amyloid nucleation score (Sup35N fusion, yeast selection) (log enrichment); library NNK3; higher = more nucleation; inactive = no reads after selection
value kind: amyloid nucleation score

residue string: IFFSIVSWKDAGCSEAINCQ
measured: inactive

residue string: HNSQLWLVPSVFTKRLCHIN
measured: inactive

residue string: RYTMAVWRLMSCNSVKSVAL
measured: inactive

residue string: SSIHVGVYYFMCMLEDVSRE
measured: 1.07
